Protocol Details: Solubility of compound in PBS at 1 mg incubated for 10 mins by HPLC analysis
Type: physicochemical
Measured Property: solubility at 10 min (µM)
Give bare numbers, in µM.

Query :: GET /values?readout=solubility at 10 min&item= Cc1ccc(-c2cc3nc(NC4CCC4)[nH]c(=O)c3s2)cc1.Cl
Result :: 1.4

---

Hi there, I'd appreciate the recorded pEC50 for every entry that follows.
Tested on: Plasmodium falciparum
Protocol Details: Antiplasmodial activity against erythrocytic stage of chloroquine, pyrimethamine and sulfadoxine resistant Plasmodium falciparum K1 infected in human erythrocytes assessed as reduction in parasite growth incubated for 72 hrs by SYBR green I fluorescence based spectrophotometric analysis
Assay type: functional, organism-based
Test Conditions: K1, Erythrocyte
One number for each entry, as −log10 of the molar value.

Batch lookup, pEC50 per entry.
1. Cc1ccc(-c2cc3nc(NC(C)(C)C)n(C(C)C)c(=O)c3s2)cc1
2. Cc1ccc(-c2cc3nc(NC4CC4)[nH]c(=O)c3s2)cc1
3. [2H]C([2H])([2H])C(Nc1nc2cc(-c3ccc(C)cc3)sc2c(=O)[nH]1)(C([2H])([2H])[2H])C([2H])([2H])[2H]
4. Cc1ccc(-c2cc3nc(NC4CCC4)[nH]c(=O)c3s2)cc1
5. Cc1ccc(-c2cc3nc(NC4CCCC4)[nH]c(=O)c3s2)cc1

Result ::
[5.38, 6.05, 7.00, 5.96, 5.85]

---

Hi there, I'd appreciate the recorded pEC50 for every entry that follows.
System: Plasmodium berghei
Protocol Details: Antiplasmodial activity against hepatic stage of Plasmodium berghei ANKA sporozoites infected in Cynomolgous monkey hepatocytes harboring Simian virus assessed as reduction in parasite growth administered for 3 hrs followed by replacement with fresh medium containing compound for every 24 hrs by DAPI staining based analysis
Assay type: functional, organism-based
Test Conditions: Hepatocyte
One number for each entry, as −log10 of the molar value.

// known answers, use as guide
{"columns": ["Molecule", "Numeric Readout"],
 "data": [
  ["Cc1ccc(-c2cc3nc(NC(C)C)[nH]c(=O)c3s2)cc1", 4.25],
  ["Cc1ccc(-c2cc3nc(NC4CCC4)[nH]c(=O)c3s2)cc1", 4.95],
  ["[2H]C([2H])([2H])C(Nc1nc2cc(-c3ccc(C)cc3)sc2c(=O)[nH]1)(C([2H])([2H])[2H])C([2H])([2H])[2H]", 4.86],
  ["Cc1ccc(-c2cc3nc(NC4CCCC4)[nH]c(=O)c3s2)cc1", 4.98]
]}

Batch lookup, pEC50 per entry.
1. COc1cc(NC(C)CCCN)c2ncccc2c1 (stereo not drawn) [PRIMAQUINE]
2. [2H]C([2H])([2H])C(Nc1nc2cc(-c3ccc(C)cc3)sc2c(=O)[nH]1)C([2H])([2H])[2H]
3. Cc1ccc(-c2cc3nc(NC4CC4)[nH]c(=O)c3s2)cc1

Result ::
5.14
4.80
5.26

---

Protocol Details: Effective permeability of compound at pH 5 incubated for 4 hrs by PAMPA-GIT assay
Format: ADME
Test Conditions: read-out: Peff
Measured Property: Papp at 4 h (×10⁻⁶ cm/s)
Answers are plain numbers, in ×10⁻⁶ cm/s.

Query :: GET /values?readout=Papp at 4 h&item= Cc1ccc(-c2cc3nc(NC4CCC4)[nH]c(=O)c3s2)cc1.Cl
Result :: 18.1

---

Protocol Details: Cytotoxicity against human HepG2 cells assessed as reduction in cell viability incubated for 72 hrs by MTT assay
Format: toxicity, cell-based
Measured Property: CC50 at 72 h (µM)
Numbers only, in µM.

{"columns": ["Smiles Input", "Result Units", "CC50 at 72 h"],
 "data": [
  ["Cc1ccc(-c2cc3nc(NC4CCC4)[nH]c(=O)c3s2)cc1", "µM", 14],
  ["Cc1ccc(-c2cc3nc(N4CCN(C)CC4)[nH]c(=O)c3s2)cc1", "µM", 8.7]
]}

# next molecule below
Query :: GET /values?readout=CC50 at 72 h&item= [2H]C([2H])([2H])C(Nc1nc2cc(-c3ccc(C)cc3)sc2c(=O)[nH]1)(C([2H])([2H])[2H])C([2H])([2H])[2H]
Result :: 17.9

---

Protocol Details: Stability in CD-1 mouse microsomes assessed as half-life in presence of NADP
Assay type: ADME, Microsome
Parameter threshold = 20 min. Response is label 1 when half-life meets or exceeds it, else label 0.

{"columns": ["Smiles Input", "Label Value"],
 "data": [
  ["Cc1ccc(-c2cc3nc(NC(C)C)[nH]c(=O)c3s2)cc1", "label 0"]
]}

Query :: Dear colleague, could you confirm whether Cc1ccc(-c2cc3nc(NC4CCC4)[nH]c(=O)c3s2)cc1 has half-life at or above 20 min?
Result :: label 1

Query :: Dear colleague, could you confirm whether Cc1ccc(-c2cc3nc(NC4CC4)[nH]c(=O)c3s2)cc1 has half-life at or above 20 min?
Result :: label 0

Query :: Dear colleague, could you confirm whether [2H]C([2H])([2H])C(Nc1nc2cc(-c3ccc(C)cc3)sc2c(=O)[nH]1)C([2H])([2H])[2H] has half-life at or above 20 min?
Result :: label 0

Query :: Dear colleague, could you confirm whether Cc1ccc(-c2cc3nc(NC4CCCC4)[nH]c(=O)c3s2)cc1 has half-life at or above 20 min?
Result :: label 1

Query :: Dear colleague, could you confirm whether [2H]C([2H])([2H])C(Nc1nc2cc(-c3ccc(C)cc3)sc2c(=O)[nH]1)(C([2H])([2H])[2H])C([2H])([2H])[2H] has half-life at or above 20 min?
Result :: label 0

---

Protocol Details: Selectivity index, ratio of CC50 for cytotoxicity against human HepG2 cells to EC50 for antiplasmodial activity against erythrocytic stage of chloroquine, pyrimethamine and sulfadoxine resistant Plasmodium falciparum K1 infected in human erythrocytes
Type: toxicity, cell-based
Test Conditions: read-out: Ratio CC50/EC50
Measured Property: selectivity ratio

// known answers, use as guide
{"columns": ["Smiles Input", "selectivity ratio"],
 "data": [
  ["Cc1ccc(-c2cc3nc(N4CCOCC4)[nH]c(=O)c3s2)cc1", "< 0.4"],
  ["Cc1ccc(-c2cc3nc(N4CCCC4)[nH]c(=O)c3s2)cc1", "> 2.1"]
]}

Batch lookup, selectivity ratio per entry.
1. Cc1ccc(-c2cc3nc(NC4CCCC4)[nH]c(=O)c3s2)cc1
2. Cc1ccc(-c2cc3nc(NC(C)(C)C)n(C(C)C)c(=O)c3s2)cc1
3. Cc1ccc(-c2cc3nc(N4CCN(C)CC4)[nH]c(=O)c3s2)cc1
4. Cc1ccc(-c2cc3nc(NC(C)(C)C(F)(F)F)[nH]c(=O)c3s2)cc1
5. [2H]C([2H])([2H])C(Nc1nc2cc(-c3ccc(C)cc3)sc2c(=O)[nH]1)C([2H])([2H])[2H]
6. Cc1ccc(-c2cc3nc(N[C@H]4CCNC4)[nH]c(=O)c3s2)cc1

Result ::
["> 5.6", "> 0.9", "< 0.3", "> 10", "> 50", "< 0.4"]

---

Protocol Details: Cytotoxicity against human HepG2 cells assessed as reduction in cell viability incubated for 72 hrs by MTT assay
Assay type: toxicity, cell-based
Measured Property: CC50 at 72 h

// known answers, use as guide
{"columns": ["Smiles Input", "CC50 at 72 h"],
 "data": [
  ["Cc1ccc(-c2cc3nc(N4CCCCC4)[nH]c(=O)c3s2)cc1", "> 3.1 µM"],
  ["Cc1ccc(-c2cc3nc(NC4CCCCC4)[nH]c(=O)c3s2)cc1", "> 12.5 µM"],
  ["Cc1ccc(-c2cc3nc(NC4CCCC4)[nH]c(=O)c3s2)cc1", "> 7.8 µM"]
]}

Batch lookup, CC50 at 72 h per entry.
1. Cc1ccc(-c2cc3nc(N)n(C)c(=O)c3s2)cc1
2. Cc1ccc(-c2cc3nc(NC(C)(C)C)n(-c4ccccc4)c(=O)c3s2)cc1

Result ::
> 6.2 µM
> 3.1 µM

---

Test system: Plasmodium falciparum
Protocol Details: Antiplasmodial activity against erythrocytic stage of chloroquine, pyrimethamine and sulfadoxine resistant Plasmodium falciparum K1 infected in human erythrocytes assessed as reduction in parasite growth incubated for 72 hrs by SYBR green I fluorescence based spectrophotometric analysis
Assay type: functional, organism-based
Test Conditions: K1, Erythrocyte
pEC50: −log10 of the molar value.
Hi there, I'd appreciate the recorded pEC50 for every entry that follows.

Batch lookup, pEC50 per entry.
1. Cc1ccc(-c2cc3nc(N)n(C)c(=O)c3s2)cc1
2. Cc1ccc(-c2cc3nc(NC4CCCCC4)[nH]c(=O)c3s2)cc1
3. Cc1ccc(-c2cc3nc(NC(C)(C)C)n(-c4ccccc4)c(=O)c3s2)cc1
4. Cc1ccc(-c2cc3nc(N4CCN(C)CC4)[nH]c(=O)c3s2)cc1
5. Cc1ccc(-c2cc3nc(N4CCCCC4)[nH]c(=O)c3s2)cc1

Result ::
["< 4.60", "< 4.90", "< 4.90", "< 4.60", "< 4.60"]
